- STUDY SYSTEM: T1, soluble extracellular domain of human IL-5 receptor alpha subunit (sIL-5Rα) (human, UniProt Q01344)
- T1 construct: human IL-5 receptor alpha subunit (IL-5Rα, CD125), extracellular domain, residues 21–333; subcloned from a cDNA of residues 1–420; Expressed from the pSecTag2A vector; migrates at ~50 kDa (glycosylated); A biotinylated form (BirA) was used only for library screening; also called sIL-5α; CD125; source: HEK293F, transiently transfected, purified (Ni-NTA); not shown: Avi, C-terminal, kept; His6, …
- T1 sequence (Q01344 21-333): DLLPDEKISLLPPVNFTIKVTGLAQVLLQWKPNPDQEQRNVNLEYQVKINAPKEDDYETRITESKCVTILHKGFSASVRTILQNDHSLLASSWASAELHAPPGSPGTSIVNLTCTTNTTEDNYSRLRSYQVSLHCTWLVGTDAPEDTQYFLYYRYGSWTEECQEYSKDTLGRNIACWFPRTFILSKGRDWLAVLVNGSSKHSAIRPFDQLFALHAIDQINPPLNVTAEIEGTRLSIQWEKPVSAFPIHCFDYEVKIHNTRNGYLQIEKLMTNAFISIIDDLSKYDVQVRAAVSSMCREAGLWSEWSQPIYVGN
- ASSAY NOTES: BLI; Octet QKe, 30°C, 1× kinetics buffer in PBS pH 7.4; Ab immobilised on anti-human IgG Fc capture (AHC) biosensors, sIL-5Rα as analyte; association 300 s, dissociation 600 s; 1:1 binding model
- CONDITION SUMMARY: both partners purified
MEASURED METRIC: koff (s⁻¹)
Report only the number, with the unit s⁻¹ understood.

The examples below pair each entry with its known result.
5R65.7 (antibody, V domains shown, as the VH of m6 (5R65) with mutations in VH-CDR3 (Kabat residues 95–100d were randomised); no mutations in VL-CDR3; Human IgG1, kappa; selected as scFab by yeast display from the 5R65 CDR3 library under kinetic screening; also called 5R65.7 Ab; source: HEK293F, purified (Protein A)) VH: QVQLVQSGAEVKKPGSSVKVSCKASGYTFTSYWINWVRQAPGQGLEWIGHIYPNKNENYYNHKFKDKATLTVDKSTNTAYMELSSLRSEDTAVYYCTREFYGRQYYQAMDYWGQGTTLTVSS VL: DIQMTQSPSTLSASVGDRVTITCKASQNVGTAVAWYQQKPGKAPKLLIYWASTRHTGVPDRFSGSGSGTDFTLTISSLQPDDFATYYCQQFGRYPYTFGSGTKVEVK | 0.000147
5R86 (antibody, V domains shown, Human IgG1, kappa; selected as scFab by yeast display from the hu2B7 VH-CDR2 library; source: HEK293F, purified (Protein A)) VH: QVQLVQSGAEVKKPGSSVKVSCKASGYTFTSYWINWVRQAPGQGLEWIGHIYPTSSVKFYNNKFKDKATLTVDKSTNTAYMELSSLRSEDTAVYYCTRDYYGRSYYYAMDYWGQGTTLTVSS VL: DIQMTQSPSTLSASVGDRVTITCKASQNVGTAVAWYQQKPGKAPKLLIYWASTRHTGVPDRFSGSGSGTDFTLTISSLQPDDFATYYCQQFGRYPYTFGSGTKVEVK | 0.0003
5R65.10 (antibody, V domains shown, as the VH of m6 (5R65) with mutations in VH-CDR3 (Kabat residues 95–100d were randomised); no mutations in VL-CDR3; Human IgG1, kappa; selected as scFab by yeast display from the 5R65 CDR3 library under kinetic screening; source: HEK293F, purified (Protein A)) VH: QVQLVQSGAEVKKPGSSVKVSCKASGYTFTSYWINWVRQAPGQGLEWIGHIYPNKNENYYNHKFKDKATLTVDKSTNTAYMELSSLRSEDTAVYYCTREYYGRSYYAAMDYWGQGTTLTVSS VL: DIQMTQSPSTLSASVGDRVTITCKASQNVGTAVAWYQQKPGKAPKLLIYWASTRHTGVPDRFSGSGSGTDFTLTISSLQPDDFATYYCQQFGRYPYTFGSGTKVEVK | 0.000201
5R80 (antibody, V domains shown, Human IgG1, kappa; selected as scFab by yeast display from the hu2B7 VH-CDR2 library; source: HEK293F, purified (Protein A)) VH: QVQLVQSGAEVKKPGSSVKVSCKASGYTFTSYWINWVRQAPGQGLEWIGHIYPQKTLTIYNHKFKDKATLTVDKSTNTAYMELSSLRSEDTAVYYCTRDYYGRSYYYAMDYWGQGTTLTVSS VL: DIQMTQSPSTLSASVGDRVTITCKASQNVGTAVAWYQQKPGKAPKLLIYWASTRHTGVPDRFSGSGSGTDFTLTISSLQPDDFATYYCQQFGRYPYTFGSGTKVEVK | 0.000365

Turning now to a further record.
Ask: If you can, please state the reported koff value of m2B7 murine anti–IL-5Rα antibody (antibody, V domains shown, VH of murine m2B7; FRs of mouse germline IGHV1-61*01; VL of murine m2B7; FRs of mouse germline IGKV6-23*01; source: hybridoma supernatant, expanded and purified) VH: QVQLQQPGAELVRPGASVKLSCKASGYTFTSYWINWVKQRPGQGLEWIGHIYPSESYTNYNQKFKDKATLTVDKSSSTAYMQLSSPTSEDSAVYYCTRDYYGRSYYYAMDYWGQGTSVTVSS VL: DIVMTQSHKFMSTSVGDRVSITCKASQNVGTAVAWYQQKPGQSPKLLIYWASTRHTGVPDRFTGSGSGTDFTFTISNVQSEDLADYFCQQFGRYPYTFGGGTKLEIK .
Result: 0.000834
